Attribution: paper PMC6325200

Tested on: E. coli ATCC 25922
Assay: microbe, parasite or virus in culture
Conditions: Corning PS plate; MHB −T80, no additive; n = 2
Where a SMILES comes first, the peptide text is derived from it. Bridges are numbered along the chain shown (N, C = ends). [ ]: non-standard residue; d: D form. The star is where a group is joined. X1 = CC[C@H](C)CCCCC(=O)*; Dab = NCC[C@H](N)C(=O)O
ASSAY_ENDPOINT: MIC

Measured MIC of `COc1cc(Cc2cnc(N)nc2N)cc(OC)c1OC` : 0.25 to 0.5 µg/mL

Measured MIC of `Cc1onc(-c2ccccc2)c1C(=O)N[C@@H]1C(=O)N2[C@@H]1SC(C)(C)[C@@H]2C(=O)O` : > 64 µg/mL

Measured MIC of `CO[C@H]1/C=C/O[C@@]2(C)Oc3c(C)c(O)c4c(O)c(c(/C=N/N5CCN(C)CC5)c(O)c4c3C2=O)NC(=O)/C(C)=C\C=C\[C@H](C)[C@H](O)[C@@H](C)[C@@H](O)[C@@H](C)[C@H](OC(C)=O)[C@@H]1C` : 4 to 8 µg/mL

Measured MIC of CC[C@H](C)CCCCC(=O)N[C@@H](CCN)C(=O)N[C@H](C(=O)N[C@@H](CCN)C(=O)N[C@H]1CCNC(=O)[C@H]([C@@H](C)O)NC(=O)[C@H](CCN)NC(=O)[C@H](CCN)NC(=O)[C@H](CC(C)C)NC(=O)[C@@H](Cc2ccccc2)NC(=O)[C@H](CCN)NC1=O)[C@@H](C)O [Polymyxin B, polymyxin B] (X1-[Dab]T[Dab][Dab][Dab][dF]L[Dab][Dab]T; lactam 4-C (inferred); N-terminus assumed) : 0.06 µg/mL

Measured MIC of CC[C@H](C)CCCCC(=O)N[C@@H](CCN)C(=O)N[C@H](C(=O)N[C@@H](CCN)C(=O)N[C@H]1CCNC(=O)[C@H]([C@@H](C)O)NC(=O)[C@H](CCN)NC(=O)[C@H](CCN)NC(=O)[C@H](CC(C)C)NC(=O)[C@@H](CC(C)C)NC(=O)[C@H](CCN)NC1=O)[C@@H](C)O [Colistin, colistin] (X1-[Dab]T[Dab][Dab][Dab][dL]L[Dab][Dab]T; lactam 4-C (inferred); N-terminus assumed) : 0.06 µg/mL

Measured MIC of `CC1(C)S[C@@H]2[C@H](NC(=O)Cc3ccccc3)C(=O)N2[C@H]1C(=O)O` : 32 to 64 µg/mL

====

Tested on: E. coli ATCC 25922
Assay: microbe, parasite or virus in culture
Details: Escherichia coli, ATCC25922, Trek PS; MH; 50% HS; n = 2
Hi there, I'd appreciate the recorded MIC for every entry that follows.
All answers are understood in µg/mL, so give the number only.

Measured MIC of `COc1cc(Cc2cnc(N)nc2N)cc(OC)c1OC` : 1

Measured MIC of `CO[C@H]1/C=C/O[C@@]2(C)Oc3c(C)c(O)c4c(O)c(c(/C=N/N5CCN(C)CC5)c(O)c4c3C2=O)NC(=O)/C(C)=C\C=C\[C@H](C)[C@H](O)[C@@H](C)[C@@H](O)[C@@H](C)[C@H](OC(C)=O)[C@@H]1C` : 8

====

Test system: E. coli ATCC 25922
Experiment: microbe, parasite or virus in culture
Conditions: Escherichia coli, ATCC25922, Corning TC; MH; 50% HS; n = 2
Hi there, I'd appreciate the recorded MIC for every entry that follows.
All answers are understood in µg/mL, so give the number only.

Considering `CO[C@H]1/C=C/O[C@@]2(C)Oc3c(C)c(O)c4c(O)c(c(/C=N/N5CCN(C)CC5)c(O)c4c3C2=O)NC(=O)/C(C)=C\C=C\[C@H](C)[C@H](O)[C@@H](C)[C@@H](O)[C@@H](C)[C@H](OC(C)=O)[C@@H]1C` , its MIC with E. coli ATCC 25922 was recorded as 8

Considering `CC1(C)S[C@@H]2[C@H](NC(=O)Cc3ccccc3)C(=O)N2[C@H]1C(=O)O` , its MIC with E. coli ATCC 25922 was recorded as 64

====

Tested on: E. coli ATCC 25922
Assay: microbe, parasite or virus in culture
Details: Corning TC plate; MHB +0.002% T80, no further additive; n = 2
Where a SMILES comes first, the peptide text is derived from it. Bridges are numbered along the chain shown (N, C = ends). [ ]: non-standard residue; d: D form. The star is where a group is joined. X1 = CC[C@H](C)CCCCC(=O)*; Dab = NCC[C@H](N)C(=O)O
ASSAY_ENDPOINT: MIC

Measured MIC of CC[C@H](C)CCCCC(=O)N[C@@H](CCN)C(=O)N[C@H](C(=O)N[C@@H](CCN)C(=O)N[C@H]1CCNC(=O)[C@H]([C@@H](C)O)NC(=O)[C@H](CCN)NC(=O)[C@H](CCN)NC(=O)[C@H](CC(C)C)NC(=O)[C@@H](Cc2ccccc2)NC(=O)[C@H](CCN)NC1=O)[C@@H](C)O [Polymyxin B, polymyxin B] (X1-[Dab]T[Dab][Dab][Dab][dF]L[Dab][Dab]T; lactam 4-C (inferred); N-terminus assumed) : 2 µg/mL

Measured MIC of `Cc1onc(-c2ccccc2)c1C(=O)N[C@@H]1C(=O)N2[C@@H]1SC(C)(C)[C@@H]2C(=O)O` : > 64 µg/mL

Measured MIC of CC[C@H](C)CCCCC(=O)N[C@@H](CCN)C(=O)N[C@H](C(=O)N[C@@H](CCN)C(=O)N[C@H]1CCNC(=O)[C@H]([C@@H](C)O)NC(=O)[C@H](CCN)NC(=O)[C@H](CCN)NC(=O)[C@H](CC(C)C)NC(=O)[C@@H](CC(C)C)NC(=O)[C@H](CCN)NC1=O)[C@@H](C)O [Colistin, colistin] (X1-[Dab]T[Dab][Dab][Dab][dL]L[Dab][Dab]T; lactam 4-C (inferred); N-terminus assumed) : 1 µg/mL

Measured MIC of `COc1cc(Cc2cnc(N)nc2N)cc(OC)c1OC` : 0.5 to 1 µg/mL

====

Test system: P. aeruginosa ATCC 10145
Test: microbe, parasite or virus in culture
Conditions: Pseudomonas aeruginosa, ATCC10145, Corning TC; MHB -T80; n = 2
Hi there, I'd appreciate the recorded MIC for every entry that follows.

Measured MIC of `CO[C@H]1/C=C/O[C@@]2(C)Oc3c(C)c(O)c4c(O)c(c(/C=N/N5CCN(C)CC5)c(O)c4c3C2=O)NC(=O)/C(C)=C\C=C\[C@H](C)[C@H](O)[C@@H](C)[C@@H](O)[C@@H](C)[C@H](OC(C)=O)[C@@H]1C` : 32 µg/mL

Measured MIC of `COc1cc(Cc2cnc(N)nc2N)cc(OC)c1OC` : > 64 µg/mL

Measured MIC of `CC1(C)S[C@@H]2[C@H](NC(=O)Cc3ccccc3)C(=O)N2[C@H]1C(=O)O` : > 64 µg/mL

Measured MIC of `Cc1onc(-c2ccccc2)c1C(=O)N[C@@H]1C(=O)N2[C@@H]1SC(C)(C)[C@@H]2C(=O)O` : > 64 µg/mL

Measured MIC of `O=C(O)c1cn(C2CC2)c2cc(N3CCNCC3)c(F)cc2c1=O` : ≤ 0.03 µg/mL

====

Test system: E. coli ATCC 25922
Test: microbe, parasite or virus in culture
Conditions: Escherichia coli, ATCC25922, 24 h, Corning NBS; MH + T80; 50% HS; n = 2
ASSAY_ENDPOINT: MIC (µg/mL)
All answers are understood in µg/mL, so give the number only.

Measured MIC of `COc1cc(Cc2cnc(N)nc2N)cc(OC)c1OC` : 2

Measured MIC of `CO[C@H]1/C=C/O[C@@]2(C)Oc3c(C)c(O)c4c(O)c(c(/C=N/N5CCN(C)CC5)c(O)c4c3C2=O)NC(=O)/C(C)=C\C=C\[C@H](C)[C@H](O)[C@@H](C)[C@@H](O)[C@@H](C)[C@H](OC(C)=O)[C@@H]1C` : 8

====

System: E. coli ATCC 25922
Assay: microbe, parasite or virus in culture
Details: Escherichia coli, ATCC25922, 24 h, Corning TC; MH + T80; 2% LS; n = 2
Hi there, I'd appreciate the recorded MIC for every entry that follows.

Measured MIC of `Cc1onc(-c2ccccc2)c1C(=O)N[C@@H]1C(=O)N2[C@@H]1SC(C)(C)[C@@H]2C(=O)O` : > 64 µg/mL

Measured MIC of `CO[C@H]1/C=C/O[C@@]2(C)Oc3c(C)c(O)c4c(O)c(c(/C=N/N5CCN(C)CC5)c(O)c4c3C2=O)NC(=O)/C(C)=C\C=C\[C@H](C)[C@H](O)[C@@H](C)[C@@H](O)[C@@H](C)[C@H](OC(C)=O)[C@@H]1C` : 4 to 8 µg/mL

Measured MIC of `COc1cc(Cc2cnc(N)nc2N)cc(OC)c1OC` : 1 to 2 µg/mL

Measured MIC of `CC1(C)S[C@@H]2[C@H](NC(=O)Cc3ccccc3)C(=O)N2[C@H]1C(=O)O` : 32 to 64 µg/mL

Measured MIC of `O=C(O)c1cn(C2CC2)c2cc(N3CCNCC3)c(F)cc2c1=O` : ≤ 0.03 µg/mL
